Reference for the values: ChEMBL document CHEMBL1124563

Let's go through some recorded Ki values for UniProt:P00381 together.
Sequence (P00381 whole entry): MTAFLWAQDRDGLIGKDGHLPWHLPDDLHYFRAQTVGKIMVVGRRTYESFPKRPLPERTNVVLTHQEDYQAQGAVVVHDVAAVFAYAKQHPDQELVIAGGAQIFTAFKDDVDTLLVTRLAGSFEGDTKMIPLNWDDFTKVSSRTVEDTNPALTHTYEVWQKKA

cpd_smiles	Ki
Nc1ncc(Cc2ccc(-c3ccccc3)cc2)c(N)n1	389 nM
CCOc1cc(Cc2cnc(N)nc2N)ccc1OCc1ccccc1	309 nM

Hi! What's the reported Ki for COc1ccc(Cc2cnc(N)nc2N)cc1O on UniProt:P00381?
257 nM

Next up: COc1cc(Cc2cnc(N)nc2N)ccc1OCc1ccccc1
316 nM

----------
# protocol_description: Partition coefficient (logD) (aqueous phase 0.1 N HCl)
# conditions_used: 0.1 N HCl (aqueous phase)
quantity_name: logD

cpd_smiles	logD
CCc1cc(Cc2cnc(N)nc2N)cc(CO)c1CO	-2.23
Nc1ncc(Cc2ccc(O)cc2)c(N)n1	-1.47
COc1ccc(Cc2cnc(N)nc2N)cc1OS(C)(=O)=O	-1.92
CCc1cc(Cc2cnc(N)nc2N)cc(NC(C)=O)c1CO	-2.17
Nc1ncc(Cc2ccc(-c3ccccc3)cc2)c(N)n1	0.98

Kindly review the next compound as well.
Which value of logD has been reported for COCCOc1c(Cc2cnc(N)nc2N)ccc(OC)c1OC in the records?
-1.81
